Can you tell me concentration at 28 days for the items I'm about to list?
- EXPERIMENTAL_DETAILS: In vivo porcine model: coated balloon deployed in femoral arteries, drug concentration in tissue
- RUN_PARAMETERS: pig, femoral artery tissue; porcine femoral arteries, after 28 days, n=18; read-out: median concentration in the tissue

[[record]]
compound = "CO[C@H]1C[C@@H]2CC[C@@H](C)[C@@](O)(O2)C(=O)C(=O)N2CCCC[C@H]2C(=O)O[C@H]([C@H](C)C[C@@H]2CC[C@@H](O)[C@H](OC)C2)CC(=O)[C@H](C)/C=C(\\C)[C@@H](O)[C@@H](OC)C(=O)[C@H](C)C[C@H](C)/C=C/C=C/C=C/1C [sirolimus]"
measured_metric = "concentration at 28 days"
val = "~70 ng/g"


Kindly consider the entry below.
Please give the documented concentration at 28 days of C[C@@H]1C[C@H]2[C@@H]3CCC4=CC(=O)C=C[C@]4(C)[C@@]3(F)[C@@H](O)C[C@]2(C)[C@@]1(O)C(=O)CO [DEX, dexamethasone]
~0.5 ng/g

----------
- EXPERIMENTAL_DETAILS: In vivo porcine model: coated balloon deployed in femoral arteries, drug concentration in tissue
- RUN_PARAMETERS: pig, femoral artery tissue; porcine femoral arteries, after 1 day, n=18; read-out: median concentration in the tissue
Can you tell me concentration at 1 day for the items I'm about to list?

[[record]]
compound = "C[C@@H]1C[C@H]2[C@@H]3CCC4=CC(=O)C=C[C@]4(C)[C@@]3(F)[C@@H](O)C[C@]2(C)[C@@]1(O)C(=O)CO [DEX, dexamethasone]"
val = "~0.525 ng/g"


Kindly consider the entry below.
Please give the documented concentration at 1 day of CO[C@H]1C[C@@H]2CC[C@@H](C)[C@@](O)(O2)C(=O)C(=O)N2CCCC[C@H]2C(=O)O[C@H]([C@H](C)C[C@@H]2CC[C@@H](O)[C@H](OC)C2)CC(=O)[C@H](C)/C=C(\C)[C@@H](O)[C@@H](OC)C(=O)[C@H](C)C[C@H](C)/C=C/C=C/C=C/1C [sirolimus]
~620 ng/g
